Entry source: the supplement of paper PMC10065799

system: Fer (mouse); assay: phosphorylation enrichment, bacterial display (enrichment ratio); higher = better substrate or ligand; peptides without Tyr show the background;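 also: 11-residue human phosphosite peptides and single-mutation variants displayed on the E. coli surface, counted by deep sequencing, each peptide's frequency after selection divided by its frequency in the unselected input library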;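 also: frequency after pTyr selection over input frequency; kinase dosed for 20-30% of maximal phosphorylation in three min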
Entries get a class label from measured phosphorylation enrichment. See ranges: bin 1 = under 0.5, bin 2 = from 0.5 up to 0.6, bin 3 = 0.6 and over

(Q) For QTSTDYDIRFF [CSNK2A1_Y131_L128S_YF] , which phosphorylation enrichment bin applies?
(A) bin 3

More entries:
(Q) For NRLTDYFEPLL [BBS10_Y536_YF] , which phosphorylation enrichment bin applies?
(A) bin 1

(Q) For LHVGFYESDVM [A2M_Y708_R704H] , which phosphorylation enrichment bin applies?
(A) bin 3

(Q) For VGTKRYMAPEV [ACVRL1_Y375] , which phosphorylation enrichment bin applies?
(A) bin 1

(Q) For FQKNIYSEELR [LMNA_Y211] , which phosphorylation enrichment bin applies?
(A) bin 2

(Q) For LGKLIYPVGFW [NTHL1_Y177] , which phosphorylation enrichment bin applies?
(A) bin 2

(Q) For QRRNVYYYSYL [PTEN_Y176_Y174N] , which phosphorylation enrichment bin applies?
(A) bin 3

(Q) For NRDNTYNRVSE [FGA_Y127] , which phosphorylation enrichment bin applies?
(A) bin 1
